Test system: CP256
Experiment: qHTS profiling for inhibitors of Plasmodium falciparum proliferation (AID 504749); also: nearly all actives have a fitted effect of over 60% in size
Conditions: P. falciparum in erythrocytes, SYBR Green DNA, 72 h; series mostly up to 28.7 µM
Results filed as inconclusive are left out. The source made the active and inactive calls. Calls follow the shape of the dose curve; as a rule, active = well fitted inhibition curve with a large enough effect; inconclusive = small, poorly fitted or top-dose-only effect; inactive = flat fitted curve, though single readings scatter.
// allowed return values: True (active), False (inactive)

| COMPOUND | CLASSIFICATION |
| --- | --- |
| O=C(OCC1OC(OC(=O)c2cc(O)c(O)c(OC(=O)c3cc(O)c(O)c(O)c3)c2)[C@@H](OC(=O)c2cc(O)c(O)c(OC(=O)c3cc(O)c(O)c(O)c3)c2)C(OC(=O)c2cc(O)c(O)c(OC(=O)c3cc(O)c(O)c(O)c3)c2)C1OC(=O)c1cc(O)c(O)c(OC(=O)c2cc(O)c(O)c(O)c2)c1)c1cc(O)c(O)c(OC(=O)c2cc(O)c(O)c(O)c2)c1 (stereo partly drawn) | True |

Prompt: Look up the recorded call for CC(=O)OCC(=O)[C@@]1(O)CCC2C3CCC4=CC(=O)CC[C@]4(C)C3=CC[C@@]21C (stereo partly drawn) in this test.
Completion: False

Prompt: Look up the recorded call for NC(=O)CCC1NC(=O)C(Cc2ccccc2)NC(=O)C(Cc2ccc(O)cc2)NC(=O)CCSSCC(C(=O)N2CCCC2C(=O)NC(CCCN=C(N)N)C(=O)NCC(N)=O)NC(=O)C(CC(N)=O)NC1=O (stereo not drawn) in this test.
Completion: False
